Each recorded value in this set is attributed to ChEMBL document CHEMBL1148873.

# TGT: UniProtKB P00915
Label Satisfied when Kinact is strictly below 10 µM; otherwise label Not satisfied.

{"columns": ["SMILES_NOTATION", "CLASS_NAME"],
 "data": [
  ["CC(C)(C)c1ccc(S(=O)(=O)NCCc2ccc(S(N)(=O)=O)cc2)cc1", "Not satisfied"],
  ["CC(C)(C)c1ccc(C(=O)Nc2ccc(S(N)(=O)=O)cc2)cc1", "Not satisfied"],
  ["Nc1ccc(S(N)(=O)=O)cc1I", "Satisfied"],
  ["CC(C)(C)c1ccc(C(=O)NCc2ccc(S(N)(=O)=O)cc2)cc1", "Not satisfied"],
  ["CC(C)(C)c1ccc(S(=O)(=O)Nc2ccc(S(N)(=O)=O)cc2)cc1", "Not satisfied"]
]}

====

# TGT: Carbonic anhydrase 2 (Homo sapiens) (UniProt P00918)
Mark label 1 only for Kinact values smaller than 100 nM; exact matches and larger values are label 0.

{"columns": ["SMILES_NOTATION", "CLASS_NAME"],
 "data": [
  ["CC(C)(C)c1ccc(C(=O)NCCc2ccc(S(N)(=O)=O)cc2)cc1", "label 0"],
  ["CC(C)(C)c1ccc(C(=O)NCc2ccc(S(N)(=O)=O)cc2)cc1", "label 0"],
  ["CC(C)(C)c1ccc(S(=O)(=O)Nc2ccccc2S(N)(=O)=O)cc1", "label 0"],
  ["CC(C)(C)c1ccc(S(=O)(=O)NCc2ccc(S(N)(=O)=O)cc2)cc1", "label 0"],
  ["CC(C)(C)c1ccc(S(=O)(=O)NCCc2ccc(S(N)(=O)=O)cc2)cc1", "label 1"]
]}

====

# System: Helicobacter pylori
Here the recorded log10 of Kinact is given for each entry.
QUANTITY_MEASURED: log10 of Kinact (log10 of the value in nM)

{"columns": ["SMILES_NOTATION", "log10 of Kinact"],
 "data": [
  ["Nc1ccccc1S(N)(=O)=O", 4.21],
  ["Cn1nc(S(N)(=O)=O)sc1=N", 2.89],
  ["Nc1ccc(S(=O)(=O)NCCc2ccc(S(N)(=O)=O)cc2)cc1", 1.85],
  ["Nc1ccc(S(N)(=O)=O)cc1I", 3.06],
  ["NNc1ccc(S(N)(=O)=O)cc1", 3.94],
  ["Cc1ccc(S(N)(=O)=O)cc1", 3.39],
  ["CC(C)(C)c1ccc(S(=O)(=O)Nc2nnc(S(N)(=O)=O)s2)cc1", 1.38]
]}

====

# key: entry, value: Kinact
# TGT: Carbonic anhydrase 1 (Homo sapiens) (UniProt P00915)
# Sequence (P00915 2-261 limits assumed): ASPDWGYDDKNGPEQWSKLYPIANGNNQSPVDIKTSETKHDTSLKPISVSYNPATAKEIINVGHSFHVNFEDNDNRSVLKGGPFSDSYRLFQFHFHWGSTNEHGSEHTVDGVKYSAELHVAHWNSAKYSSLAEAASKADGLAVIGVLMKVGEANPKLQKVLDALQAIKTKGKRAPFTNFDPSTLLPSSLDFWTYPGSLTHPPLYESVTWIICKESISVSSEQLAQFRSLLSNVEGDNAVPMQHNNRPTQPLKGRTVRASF
QUANTITY_MEASURED: Kinact (µM)

{"columns": ["SMILES_NOTATION", "QUANTITY_MEASURED", "QUANTITATIVE_READOUT"],
 "data": [
  ["CC(C)(C)c1ccc(C(=O)NCCc2ccc(S(N)(=O)=O)cc2)cc1", "Kinact", 13.3],
  ["CC(C)(C)c1ccc(C(=O)Nc2nnc(S(N)(=O)=O)s2)cc1", "Kinact", 0.541],
  ["Cc1ccc(S(N)(=O)=O)cc1", "Kinact", 78.5],
  ["CC(C)(C)c1ccc(S(=O)(=O)Nc2cccc(S(N)(=O)=O)c2)cc1", "Kinact", 9.62],
  ["CC(C)(C)c1ccc(C(=O)Nc2ccccc2S(N)(=O)=O)cc1", "Kinact", 12.3],
  ["NNc1ccc(S(N)(=O)=O)cc1", "Kinact", 28],
  ["CC(C)(C)c1ccc(S(=O)(=O)Nc2nnc(S(N)(=O)=O)s2)cc1", "Kinact", 0.338],
  ["CC(C)(C)c1ccc(S(=O)(=O)Nc2ccccc2S(N)(=O)=O)cc1", "Kinact", 14.7],
  ["CC(C)(C)c1ccc(C(=O)Nc2cccc(S(N)(=O)=O)c2)cc1", "Kinact", 10.8],
  ["NS(=O)(=O)c1nnc(-c2ccccc2Cl)s1", "Kinact", 0.69],
  ["CC(C)(C)c1ccc(S(=O)(=O)NCc2ccc(S(N)(=O)=O)cc2)cc1", "Kinact", 12.2]
]}
